Each entry below carries its reported Papp at 5 h.
Protocol: in vitro
Assay type: in vitro ADME
Design: dose or concentration left out as unconfirmed
Condition label: PAMPA, PBS pH 7.4, 25° C., read-out: Permeability Pampa

[
  {
    "Molecule": "CN1CCN(c2ccc(/C(=C(/CCCO)c3ccccc3)c3ccc(N)cc3)cc2)CC1 [Compound 26a]",
    "Papp at 5 h, ×10⁻⁶ cm/s": 1.58
  },
  {
    "Molecule": "CN1CCC[C@H]1COc1ccc(/C(=C(/CCCO)c2ccccc2)c2ccc(Br)cc2)cc1 [Compound 13b]",
    "Papp at 5 h, ×10⁻⁶ cm/s": 0.93
  },
  {
    "Molecule": "CC(C)N1CCN(c2ccc(/C(=C(/CCCO)c3ccccc3)c3ccc(NS(C)(=O)=O)cc3)cc2)CC1 [Compound 27a]",
    "Papp at 5 h, ×10⁻⁶ cm/s": 2.22
  },
  {
    "Molecule": "C[Si](C)(CN1CCCCC1)c1ccc(/C(=C(/CCCO)c2ccccc2)c2ccc(O)cc2)cc1 [Compound 42b]",
    "Papp at 5 h, ×10⁻⁶ cm/s": 0.1
  },
  {
    "Molecule": "CN1CCC[C@@H]1CCOc1ccc(/C(=C(/CCCO)c2ccccc2)c2ccc(O)cc2)cc1",
    "Papp at 5 h, ×10⁻⁶ cm/s": 0.12
  },
  {
    "Molecule": "Nc1ccc(/C(=C(\\CCCO)c2ccccc2)c2ccc(C3CCN(C4CC4)CC3)cc2)cc1 [Compound 26d]",
    "Papp at 5 h, ×10⁻⁶ cm/s": 1.04
  },
  {
    "Molecule": "CN1CCCC1CCOc1ccc(/C(=C(/CCCO)c2ccccc2)c2ccc(Br)cc2)cc1 (centres unmarked) [Compound 13d]",
    "Papp at 5 h, ×10⁻⁶ cm/s": 0.14
  }
]

----------
Measured on: CYP2C9 (Homo sapiens (Human), UniProt P11712)
Sequence (P11712 whole entry): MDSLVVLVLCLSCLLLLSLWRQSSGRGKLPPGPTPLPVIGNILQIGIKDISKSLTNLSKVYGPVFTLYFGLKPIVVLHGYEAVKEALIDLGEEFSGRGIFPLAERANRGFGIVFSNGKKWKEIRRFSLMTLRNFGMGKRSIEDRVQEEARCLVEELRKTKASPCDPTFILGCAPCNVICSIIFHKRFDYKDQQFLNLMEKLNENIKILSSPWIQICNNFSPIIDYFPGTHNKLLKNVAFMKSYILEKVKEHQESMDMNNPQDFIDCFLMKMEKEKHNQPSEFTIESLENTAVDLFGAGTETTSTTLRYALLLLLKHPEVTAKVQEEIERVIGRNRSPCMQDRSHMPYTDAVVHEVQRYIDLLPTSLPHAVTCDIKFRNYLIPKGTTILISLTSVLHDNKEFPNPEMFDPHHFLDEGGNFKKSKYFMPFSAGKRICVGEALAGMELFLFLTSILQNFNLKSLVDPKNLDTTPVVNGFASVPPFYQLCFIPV
Protocol: Cytochrome P450 activity inhibition, CYP2C9
Type: in vitro ADME
Condition label: 10 μM, human liver microsomes, Diclofenac substrate
Measured property: CYP inhibition (% of control) 2C9

[
  {
    "Compound": "OCCC/C(=C(\\c1ccc(O)cc1)c1ccc(C2CN(C3CC3)C2)cc1)c1ccccc1 [Compound 22d]",
    "Value reported": ">100 % of control"
  },
  {
    "Compound": "OCCC/C(=C(\\c1ccc(O)cc1)c1ccc(N2CCNCC2)cc1)c1ccccc1 [Compound 20j]",
    "Value reported": "77.1 % of control"
  },
  {
    "Compound": "OCCC/C(=C(\\c1ccc(O)cc1)c1ccc(N2CCN(C3CCCCC3)CC2)cc1)c1ccccc1 [Compound 22p]",
    "Value reported": "81.8 % of control"
  },
  {
    "Compound": "CCN1CCC(c2ccc(C(=C(CCCO)c3ccccc3)c3cccc(O)c3)cc2)CC1 [Compound 22ae]",
    "Value reported": ">100 % of control"
  },
  {
    "Compound": "CC(C)N1CCC(c2ccc(/C(=C(/CCCO)c3ccccc3)c3cccc(O)c3)cc2)CC1 [Compound 22h]",
    "Value reported": "97.9 % of control"
  },
  {
    "Compound": "CCN1CCN(c2ccc(/C(=C(/CCCO)c3ccccc3)c3ccc(C)cc3)cc2)CC1 [Compound 18j]",
    "Value reported": "87 % of control"
  },
  {
    "Compound": "CN1CCCC1CCOc1ccc(/C(=C(/CCCO)c2ccccc2)c2ccc(Br)cc2)cc1 (centres unmarked) [Compound 13d]",
    "Value reported": "97 % of control"
  },
  {
    "Compound": "OCCC/C(=C(/c1ccc(C2CCN(C3CC3)CC2)cc1)c1cccc(O)c1)c1ccccc1 [Compound 22r]",
    "Value reported": ">100 % of control"
  }
]
